Values from the RNAGym collection of RNA variant scans (doi:10.1038/s41586-018-0170-7)

B1: tRNA (parent)
chain: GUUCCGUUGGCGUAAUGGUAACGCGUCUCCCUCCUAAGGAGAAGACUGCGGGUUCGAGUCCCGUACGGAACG

variants of: B1; assay: yeast fitness, log relative to wild type (ln ratio); higher = fitter; tRNA-Arg(CCU), competitive growth, 37 C, 1 M NaCl
Label criterion met when yeast fitness (ln) is at or above -0.1; anything below gets criterion not met.

Some solved cases for reference:
G1A C27U A43C C71U = criterion met
G6A A43C C66U = criterion met
G1A U2G G6A A43C C46U A70U C71U = criterion not met
U2C G6U C27U A43C C66A = criterion not met
U2G C27U C66A A70G C71U = criterion not met
G1A G6U C27U C46U A69G C71U = criterion not met

Query: Does yeast fitness (ln) meet or surpass -0.1 for U2G G6U C27U A43C A69G A70G C71U ?
Reply: criterion not met

Query: Does yeast fitness (ln) meet or surpass -0.1 for G1A U2G G6U C27U C66U A70U C71U ?
Reply: criterion not met

Query: Does yeast fitness (ln) meet or surpass -0.1 for G1A U2G G6U A43C C66A A70U ?
Reply: criterion not met

Query: Does yeast fitness (ln) meet or surpass -0.1 for A69G A70G C71U ?
Reply: criterion not met
